# study_system: Glutamate NMDA receptor
# test_description: Displacement of [3H][…] from NMDA receptor in rat synaptosomes
# Type: subcellular, Brain
measured_parameter: Ki

Quick check: Ki of Cn1nnc(-c2onc(O)c2C[C@H](N)C(=O)O)n1 ?
> 100 µM

---

# study_system: Glutamate receptor ionotropic, kainate 2 (Rattus norvegicus, UniProt P42260)
# Sequence (P42260 whole entry): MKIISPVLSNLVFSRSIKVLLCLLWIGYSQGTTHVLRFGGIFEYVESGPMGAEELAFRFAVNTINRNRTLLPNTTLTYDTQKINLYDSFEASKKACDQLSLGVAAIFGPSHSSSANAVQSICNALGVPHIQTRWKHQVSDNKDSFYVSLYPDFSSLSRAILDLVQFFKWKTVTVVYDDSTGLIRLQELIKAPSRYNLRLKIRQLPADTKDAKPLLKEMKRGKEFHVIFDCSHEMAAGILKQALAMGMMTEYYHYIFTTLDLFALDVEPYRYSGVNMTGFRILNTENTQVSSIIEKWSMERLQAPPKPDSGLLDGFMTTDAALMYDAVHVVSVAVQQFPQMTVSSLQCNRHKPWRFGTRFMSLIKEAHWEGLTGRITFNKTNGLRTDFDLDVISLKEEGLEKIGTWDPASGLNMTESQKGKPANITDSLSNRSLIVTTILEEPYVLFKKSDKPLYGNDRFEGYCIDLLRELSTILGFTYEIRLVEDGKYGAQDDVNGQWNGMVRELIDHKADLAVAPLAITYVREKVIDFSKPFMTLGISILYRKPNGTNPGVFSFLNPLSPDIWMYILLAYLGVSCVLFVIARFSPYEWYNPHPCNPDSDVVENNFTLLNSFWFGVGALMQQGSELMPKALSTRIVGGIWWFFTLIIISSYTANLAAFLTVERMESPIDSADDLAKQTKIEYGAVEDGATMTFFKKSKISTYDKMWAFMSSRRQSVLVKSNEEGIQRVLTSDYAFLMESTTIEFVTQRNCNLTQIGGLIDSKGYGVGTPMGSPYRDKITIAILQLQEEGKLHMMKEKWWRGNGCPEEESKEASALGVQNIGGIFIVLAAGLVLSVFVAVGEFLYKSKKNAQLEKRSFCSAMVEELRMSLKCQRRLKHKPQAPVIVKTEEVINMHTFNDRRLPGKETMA
# test_description: Displacement of [3H]KA from rat recombinant GluR6 expressed in Sf9 cells
measured_parameter: Ki

Can you look up Ki on Glutamate receptor ionotropic, kainate 2 (Rattus norvegicus, UniProt P42260) for CCn1nnc(-c2onc(O)c2CC(N)C(=O)O)n1 (stereo unspecified) ?
> 100 µM

Can you look up Ki on Glutamate receptor ionotropic, kainate 2 (Rattus norvegicus, UniProt P42260) for NC(Cc1c(O)noc1-c1nnn(Cc2ccccc2)n1)C(=O)O (racemic) ?
39 µM

Can you look up Ki on Glutamate receptor ionotropic, kainate 2 (Rattus norvegicus, UniProt P42260) for Cc1onc(O)c1CC(N)C(=O)O (racemic) [(R,S)-AMPA] ?
> 1000 µM

Can you look up Ki on Glutamate receptor ionotropic, kainate 2 (Rattus norvegicus, UniProt P42260) for CCCn1nnc(-c2onc(O)c2CC(N)C(=O)O)n1 (stereo unspecified) ?
> 100 µM

Can you look up Ki on Glutamate receptor ionotropic, kainate 2 (Rattus norvegicus, UniProt P42260) for CC(C)n1nnc(-c2onc(O)c2CC(N)C(=O)O)n1 (stereo unspecified) ?
> 100 µM

Can you look up Ki on Glutamate receptor ionotropic, kainate 2 (Rattus norvegicus, UniProt P42260) for Cn1nnc(-c2onc(O)c2C[C@H](N)C(=O)O)n1 ?
19 µM

---

measured_parameter: Ki (nM)
Respond numerically; units are nM and should not be typed.

Can you look up Ki on Glutamate receptor 4 (Rattus norvegicus, UniProt P19493) for CCCn1nnc(-c2onc(O)c2CC(N)C(=O)O)n1 (centres undefined) ?
730

Can you look up Ki on Glutamate receptor 4 (Rattus norvegicus, UniProt P19493) for CC(C)n1nnc(-c2onc(O)c2CC(N)C(=O)O)n1 (centres undefined) ?
2400

Can you look up Ki on Glutamate receptor 4 (Rattus norvegicus, UniProt P19493) for CCn1nnc(-c2onc(O)c2CC(N)C(=O)O)n1 (centres undefined) ?
44

Can you look up Ki on Glutamate receptor 4 (Rattus norvegicus, UniProt P19493) for Cn1nnc(-c2onc(O)c2C[C@H](N)C(=O)O)n1 ?
2.7

---

UniProtKB P19492 pKi data
Sequence (P19492 whole entry): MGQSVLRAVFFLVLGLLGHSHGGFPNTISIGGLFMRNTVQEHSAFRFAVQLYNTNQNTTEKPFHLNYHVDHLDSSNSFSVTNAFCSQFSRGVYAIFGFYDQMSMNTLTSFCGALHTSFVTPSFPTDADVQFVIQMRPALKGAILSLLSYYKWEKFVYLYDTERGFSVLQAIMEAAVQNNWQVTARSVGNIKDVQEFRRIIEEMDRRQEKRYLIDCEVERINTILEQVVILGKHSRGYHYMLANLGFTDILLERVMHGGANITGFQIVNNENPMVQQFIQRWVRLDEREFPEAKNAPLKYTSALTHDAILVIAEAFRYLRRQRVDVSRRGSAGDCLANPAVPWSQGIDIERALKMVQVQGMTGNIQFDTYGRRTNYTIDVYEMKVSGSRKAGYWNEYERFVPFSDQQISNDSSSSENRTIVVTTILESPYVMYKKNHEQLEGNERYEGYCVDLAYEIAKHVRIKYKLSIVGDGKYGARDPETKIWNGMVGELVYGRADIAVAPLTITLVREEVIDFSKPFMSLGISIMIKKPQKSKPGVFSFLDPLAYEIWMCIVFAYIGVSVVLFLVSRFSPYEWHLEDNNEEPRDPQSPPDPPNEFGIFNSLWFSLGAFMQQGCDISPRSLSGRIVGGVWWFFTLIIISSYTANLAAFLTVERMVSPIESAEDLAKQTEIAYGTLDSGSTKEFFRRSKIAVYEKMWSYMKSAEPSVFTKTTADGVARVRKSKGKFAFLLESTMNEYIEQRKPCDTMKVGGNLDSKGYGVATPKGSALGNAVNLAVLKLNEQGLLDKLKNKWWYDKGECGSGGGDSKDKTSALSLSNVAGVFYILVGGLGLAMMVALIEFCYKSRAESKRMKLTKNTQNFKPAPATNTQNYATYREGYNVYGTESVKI
On this scale, pKi is minus log10 of a concentration expressed in M (mol/L).

Quick check: pKi of CCCn1nnc(-c2onc(O)c2CC(N)C(=O)O)n1 (stereo not drawn) ?
5.92

Quick check: pKi of CCn1nnc(-c2onc(O)c2CC(N)C(=O)O)n1 (stereo not drawn) ?
7.35

Quick check: pKi of CC(C)n1nnc(-c2onc(O)c2CC(N)C(=O)O)n1 (stereo not drawn) ?
5.43

---

measured_parameter: Ki (nM)
Respond numerically; units are nM and should not be typed.

Can you look up Ki on Glutamate receptor 2 (Rattus norvegicus) for CCn1nnc(-c2onc(O)c2CC(N)C(=O)O)n1 (centres undefined) ?
80

Can you look up Ki on Glutamate receptor 2 (Rattus norvegicus) for Cn1nnc(-c2onc(O)c2C[C@H](N)C(=O)O)n1 ?
3.9

Can you look up Ki on Glutamate receptor 2 (Rattus norvegicus) for CCCn1nnc(-c2onc(O)c2CC(N)C(=O)O)n1 (centres undefined) ?
1600

Can you look up Ki on Glutamate receptor 2 (Rattus norvegicus) for CC(C)n1nnc(-c2onc(O)c2CC(N)C(=O)O)n1 (centres undefined) ?
2900

---

# study_system: Glutamate NMDA receptor
# test_description: Displacement of [3H]CGP 39653 from NMDA receptor in rat synaptosomes
# Assay type: subcellular, Brain
pKi: −log10 of the molar value.
Give pKi for every item shown.

Quick check: pKi of NC(Cc1c(O)noc1-c1nnn(Cc2ccccc2)n1)C(=O)O (racemic) ?
4.06

Quick check: pKi of CC(C)n1nnc(-c2onc(O)c2CC(N)C(=O)O)n1 (stereo not given) ?
< 4.00

Quick check: pKi of CCn1nnc(-c2onc(O)c2CC(N)C(=O)O)n1 (stereo not given) ?
< 4.00

Quick check: pKi of NC(Cc1c(O)noc1-c1nnnn1Cc1ccccc1)C(=O)O (racemic) ?
< 4.00

Quick check: pKi of CCCn1nnc(-c2onc(O)c2CC(N)C(=O)O)n1 (stereo not given) ?
< 4.00

---

# test_description: Displacement of [3H]AMPA from AMPA receptor in rat synaptosomes
# Type: subcellular, Brain
measured_parameter: pIC50
On this scale, pIC50 is minus log10 of a concentration expressed in M (mol/L).

Quick check: pIC50 of Cn1nnc(-c2onc(O)c2C[C@H](N)C(=O)O)n1 ?
8.05

Quick check: pIC50 of CC(C)n1nnc(-c2onc(O)c2CC(N)C(=O)O)n1 (stereo unspecified) ?
5.21

Quick check: pIC50 of CCCn1nnc(-c2onc(O)c2CC(N)C(=O)O)n1 (stereo unspecified) ?
5.60

Quick check: pIC50 of NC(Cc1c(O)noc1-c1nnn(Cc2ccccc2)n1)C(=O)O (racemic) ?
5.57

Quick check: pIC50 of CCn1nnc(-c2onc(O)c2CC(N)C(=O)O)n1 (stereo unspecified) ?
6.89

---

# study_system: Glutamate receptor ionotropic, kainate 1 (Rattus norvegicus, UniProt P22756)
# Sequence (P22756 whole entry): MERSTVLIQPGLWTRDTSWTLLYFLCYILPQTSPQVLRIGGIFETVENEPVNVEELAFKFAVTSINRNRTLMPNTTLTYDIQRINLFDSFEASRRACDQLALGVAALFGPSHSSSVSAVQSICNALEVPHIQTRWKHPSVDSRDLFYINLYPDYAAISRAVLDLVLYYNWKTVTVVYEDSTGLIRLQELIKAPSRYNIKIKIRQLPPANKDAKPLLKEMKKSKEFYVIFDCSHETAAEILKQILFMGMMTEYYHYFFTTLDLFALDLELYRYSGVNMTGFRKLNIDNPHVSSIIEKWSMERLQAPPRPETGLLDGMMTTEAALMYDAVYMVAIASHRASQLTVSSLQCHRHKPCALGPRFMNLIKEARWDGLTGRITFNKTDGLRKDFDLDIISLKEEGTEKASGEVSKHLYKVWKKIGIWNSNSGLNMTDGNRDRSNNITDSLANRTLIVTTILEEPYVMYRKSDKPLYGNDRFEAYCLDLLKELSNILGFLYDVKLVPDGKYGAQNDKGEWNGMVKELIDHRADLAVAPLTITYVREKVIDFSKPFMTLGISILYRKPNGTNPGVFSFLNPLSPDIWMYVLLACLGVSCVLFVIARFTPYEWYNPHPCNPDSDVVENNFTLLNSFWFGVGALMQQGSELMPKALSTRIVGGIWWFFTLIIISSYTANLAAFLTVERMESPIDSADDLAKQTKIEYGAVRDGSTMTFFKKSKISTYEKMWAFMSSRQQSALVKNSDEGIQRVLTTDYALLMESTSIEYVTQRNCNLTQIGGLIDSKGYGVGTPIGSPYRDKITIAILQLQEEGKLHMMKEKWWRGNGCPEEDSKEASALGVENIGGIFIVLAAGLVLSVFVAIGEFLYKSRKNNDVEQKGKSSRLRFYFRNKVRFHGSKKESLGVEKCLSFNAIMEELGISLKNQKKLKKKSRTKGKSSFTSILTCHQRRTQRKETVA
# test_description: biochemical
# Description: Displacement of [3H]SYM 2081 from rat recombinant GluR5 expressed in Sf9 cells
Give Ki for every item shown.
Please make sure the unit comes right after the number.

Quick check: Ki of CCCn1nnc(-c2onc(O)c2CC(N)C(=O)O)n1 (stereo not given) ?
5.5 µM

Quick check: Ki of NC(Cc1c(O)noc1-c1nnn(Cc2ccccc2)n1)C(=O)O (racemic) ?
58 µM

Quick check: Ki of Cn1nnc(-c2onc(O)c2C[C@H](N)C(=O)O)n1 ?
8.1e-05 µM

Quick check: Ki of CCn1nnc(-c2onc(O)c2CC(N)C(=O)O)n1 (stereo not given) ?
2.9 µM

Quick check: Ki of CC(C)n1nnc(-c2onc(O)c2CC(N)C(=O)O)n1 (stereo not given) ?
31 µM
